The values you see were collected from patent US12318403B2.

biological target: human wild type STING (WT STING) (Homo sapiens, UniProt Q86WV6, H232R); assay: 293T WT STING standard reporter assay; format: cell-based; conditions: 293T WT STING EC50, 293T wtSTING-FL cells; standard reporter assay without digitonin; 7 hours; ISRE firefly luciferase
Sequence (Q86WV6 whole entry H232R): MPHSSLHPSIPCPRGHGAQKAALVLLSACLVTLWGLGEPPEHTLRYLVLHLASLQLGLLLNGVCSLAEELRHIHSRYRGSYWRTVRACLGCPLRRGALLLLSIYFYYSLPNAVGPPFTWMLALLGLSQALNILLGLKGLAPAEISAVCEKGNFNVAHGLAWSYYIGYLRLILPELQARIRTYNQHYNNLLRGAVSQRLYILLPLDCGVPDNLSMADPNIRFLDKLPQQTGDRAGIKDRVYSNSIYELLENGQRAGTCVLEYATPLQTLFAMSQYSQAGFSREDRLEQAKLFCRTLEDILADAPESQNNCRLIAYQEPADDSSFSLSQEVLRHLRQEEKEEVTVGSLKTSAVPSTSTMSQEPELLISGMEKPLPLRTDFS
// reported EC50 for each item listed
Express your answer in µM, writing the number without its unit.

{"compound": "CCCCCCCC(=O)Oc1ccc(CSP2(=O)CO[C@H]3[C@@H](F)[C@H](n4cnc5c(N)ncnc54)O[C@@H]3COP(=O)(O)O[C@@H]3[C@H](F)[C@@H](CO2)O[C@H]3n2cnc3c(=O)[nH]c(N)nc32)cc1 (single isomer, unassigned) [Compound 45b]", "EC50, µM": 0.15}

# input Using the record for CC(C)(C)C(=O)OCSP1(=O)CO[C@H]2[C@@H](F)[C@H](n3cnc4c(N)ncnc43)O[C@@H]2COP(=O)(O)O[C@@H]2[C@H](F)[C@@H](CO1)O[C@H]2n1cnc2c(=O)[nH]c(N)nc21 (single isomer, unassigned) [Compound 41a] , state its measured EC50.
# output 10.4
